Assay target: T1, recombinant mature myostatin (human, produced in E. coli) (human, UniProt O14793 267-375)
T1 construct: mature; also called GDF-8
T1 sequence (looked up): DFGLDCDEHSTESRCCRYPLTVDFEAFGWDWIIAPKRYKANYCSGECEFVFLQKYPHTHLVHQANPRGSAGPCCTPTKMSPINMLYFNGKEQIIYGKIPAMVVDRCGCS
Protocol text: KinExA solution equilibrium assay or BIAcore (table does not say which)
pKd: −log10 of the molar value.
Quantity kind: pKd

[[record]]
binder = "2x mTN8-19-7 peptibody (Fc fusion, Fc dimer; also called 2×mTN8-19-7) GGGGGAQLADHGQCIRWPWMCPPEGWELEGSGSATGGSGSTASSGSGSATGLADHGQCIRWPWMCPPEGWELE"
quantity_kind = "pKd"
numeric_value = 10.92


a. 2x mTN8-19-21 peptibody (Fc fusion, Fc dimer) GGGGGAQSEYQGLCTRWPWMCPPQGWKLEGSGSATGGSGSTASSGSGSATGSEYQGLCTRWPWMCPPQGWKLE
b. 2x mTN8-19-33 peptibody (Fc fusion, Fc dimer; also called 2×mTN8-19-33) GGGGGAQPESQGHCTRWPWMCPPQGWGLEGSGSATGGSGSTASSGSGSATGPESQGHCTRWPWMCPPQGWGLE
Ask | Which shows the larger pKd value: a or b ? Field: selected label. Fill in the label of the entry you choose.
Reply | b

The measured values listed here are drawn from patent US20100330072A1.
